# recordedConditions: in ethyl acetate, 318.15 K
measuredQuantity: solubility (mole fraction)
Give only the figure.

Data request: Give the measured solubility (mole fraction) of `COC(=O)[C@@H](N)CC(C)C.Cl` .
Data returned: 0.000892

###

# recordedConditions: in acetone, 283.15 K
measuredQuantity: solubility (mole fraction)

Data request: Requested read-out: solubility (mole fraction). Entry: `COC(=O)[C@@H](N)CC(C)C.Cl`
Data returned: 0.00343

###

# recordedConditions: in acetonitrile, 308.15 K
measuredQuantity: solubility (mole fraction)
Number only, no unit.

Data request: // query solubility (mole fraction) value for entry `COC(=O)[C@@H](N)CC(C)C.Cl`
Data returned: 0.0051
